All figures here come from patent US20250049896A1.

- experimental-system: T1, hmm.hTfRC (REGN2431), human transferrin receptor extracellular domain with hexahistidine-myc-myc tag (human, UniProt P02786 89-760)
- T1 construct: Monomeric recombinant protein, 79210 g/mol; also called hTFR-mmh; His-myc-myc-hTFRC ecto
- T1 sequence (P02786 other isoform, or with tags, fused parts or gaps): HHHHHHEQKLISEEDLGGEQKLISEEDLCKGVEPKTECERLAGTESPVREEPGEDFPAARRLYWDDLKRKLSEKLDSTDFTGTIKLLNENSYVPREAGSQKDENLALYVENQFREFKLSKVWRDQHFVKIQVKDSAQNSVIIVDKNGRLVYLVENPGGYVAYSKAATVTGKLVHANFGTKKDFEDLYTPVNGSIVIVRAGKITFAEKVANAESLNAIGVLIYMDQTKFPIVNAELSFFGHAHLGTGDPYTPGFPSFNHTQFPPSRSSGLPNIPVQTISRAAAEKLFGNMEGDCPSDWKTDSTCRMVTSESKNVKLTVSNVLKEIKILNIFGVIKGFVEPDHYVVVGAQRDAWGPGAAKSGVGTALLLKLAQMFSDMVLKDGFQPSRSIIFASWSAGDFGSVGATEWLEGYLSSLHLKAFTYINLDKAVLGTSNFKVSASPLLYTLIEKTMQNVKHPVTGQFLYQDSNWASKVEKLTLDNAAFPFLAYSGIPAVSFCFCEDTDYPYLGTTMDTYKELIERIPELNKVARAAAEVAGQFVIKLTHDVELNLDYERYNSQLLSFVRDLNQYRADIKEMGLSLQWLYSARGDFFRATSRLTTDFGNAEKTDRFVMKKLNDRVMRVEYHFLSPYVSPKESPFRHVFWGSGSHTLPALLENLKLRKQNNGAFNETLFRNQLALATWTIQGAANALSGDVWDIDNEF
- assay-summary: SPR (Biacore), mAb captured on anti-human Fc, 100 nM hTFR-mmh, 25 C
endpoint-name: koff (s⁻¹)
Provide the reading as a plain figure in s⁻¹.

Name the recorded koff for 69263 (antibody, human IgG1, kappa, V domains shown, Tested as bivalent human IgG1 from CHO primary supernatant) VH: EVQLVESGGGLVQPGRSLRLSCAVSGFTFDDYAMHWVRQAPGKGLEWVSGISWNSGTRGYADSVKGRFTISRDNAKNSLYLQMNSLRGEDTALYYCVKDITISPNYYGMDVWGQGTTVTVSS VL: DIQMTQSPSSLSASVGDRVTITCRASQDISHYSAWYQQKPGKLPNLLIYAASTLQSGVPSRFSGSGSGTDFSLTTSSLQPEDVATYYCQKYNSVPLTFGGGTKVEIKR .
0.00115

Quick one: koff for 12799B (antibody, human IgG1, kappa, V domains shown, Tested as bivalent human IgG1 from CHO primary supernatant; also called H1H12799B; REGN17508) VH: QITLKESGPTLVKPTQTLTLTCTFSGFSLSTSGVGVVWIRQPPGKALEWLALIYWNDHKRYSPSLGSRLTITKDTSKNQVVLTMTNMDPVDTATYYCAHYSGSYSYYYYGLDVWGQGTTVTVSS VL: DIQMTQSPSSVSASVGDRVTITCRASQGIASWLAWYQQKPGKAPELLIYAASSLQGGVPSRFSGSGSGTDFTLTISSLQPEDFAIYYCQQANYFPWTFGQGTKVEIKR ?
6.62e-05

What koff value was documented for this binder, 69329 (antibody, human IgG1, kappa, V domains shown, Tested as bivalent human IgG1 from CHO primary supernatant) VH: EVQLVESGGGLVQPGGSLRLSCAASGFTFSNYWMTWVRQAPGKGLEWVANIKEDGSEKDYVDSVKGRFTISRDNAKNSLYLQMNSLRGEDTAVYYCARDGEQLVDYYYYYVMDVWGQGTTVTVSS VL: DIQMTQSPSSVSASVGDRVTITCRASQGISSWLAWYQQKPGKAPKLLIYAASSLQSGVPSRFSGSGSGTDFTLTISSLQPEDFATYYCQKANSFPYTFGQGTKLEIKR ?
0.000186
